Experiment: Cytotoxicity against mock-infected human MT4 cells by MTT assay
Format: cell-based
Measured CC50 of individual entries

Cc1ccc(NC(=S)OCCN2C(=O)c3ccccc3C2=O)c(C)c1 : > 100 µM
O=C(O)c1ccccc1C(=O)NCCOC(=S)Nc1c(F)cc(F)cc1F : > 100 µM
O=C1c2ccccc2C(=O)N1CCOC(=S)NC1CC1 : > 100 µM
O=C1c2ccccc2C(=O)N1CCOC(=S)NCC1CCCCC1 : > 100 µM
COc1ccc(NC(=S)OCCNC(=O)c2ccccc2C(=O)O)cc1OC : > 100 µM

Next, consider the following molecule.
Entry under test: O=C1c2ccccc2C(=O)N1CCOC(=S)NCc1ccco1 . Its CC50 was > 100 µM
